System: Mus musculus
Assay: Induction of catalepsy in Mus musculus albino (mouse) at 25 mg/kg, ip measured after 20 min for 5 min
Format: organism-based
Design: dose 25 mg/kg, route intraperitoneal
Details: in vivo
Param threshold (40%) applies to Activity; output criterion met when value >= threshold, criterion not met when value < threshold.

Solved entries (count: 2):
O=c1oc2cc(OCCCOc3ccc4ccccc4c3)ccc2s1
criterion met
CCN(CC)CCCOc1ccc2sc(=O)oc2c1
criterion not met

Determine whether measured Activity meets or exceeds 40% for O=c1oc2cc(OCCCn3cnnc3)ccc2s1
criterion not met

====

Test system: Mus musculus
Assay: Induction of catalepsy in Mus musculus albino (mouse) at 25 mg/kg, ip measured after 20 min for 5 min
Assay type: organism-based
Parameters: dose 25 mg/kg, route intraperitoneal
Details: in vivo
Parameter Activity: see the listing below.
The reply should be a number in %, with the unit left off.

O=c1oc2cc(OCCCN3CCCCC3)ccc2s1
41
O=c1oc2cc(OCCCOc3ccc(Cl)cc3)ccc2s1
33.71
O=c1oc2cc(OCCCOc3ccc([N+](=O)[O-])cc3)ccc2s1
43.92
O=C1CCc2ccc(OCCCCN3CCN(c4cccc(Cl)c4Cl)CC3)cc2N1 [ARIPIPRAZOLE]
29.34
O=c1oc2cc(OCCCOc3cccc4ccccc34)ccc2s1
49.21

Kindly review the next molecule as well.
Just so you know, measured Activity for O=c1oc2cc(OCCCN3CCNCC3)ccc2s1 came out at 42.39

Values compiled from ChEMBL document CHEMBL3046137.
